Reference source: patent US20090208538A1

- Measured target: T1, HLA-A*0201 (human)
- T1 construct: also called HLA-A2.1; HLA A2.1
- Assay text: iTopia affinity;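 note: peptide affinity for plate-bound HLA-A2 molecules (iTopia system), with ED50 derived from an eight-point serial peptide dilution series run under binding assay conditions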

[
  {
    "Binder": "TMLQAQLSL [cdr2 203-211 TMLQAQLSL]",
    "ED50 / µM": 0.8
  },
  {
    "Binder": "FVYDHVFAE [cdr2 171-179 FVYDHVFAE]",
    "ED50 / µM": 10
  },
  {
    "Binder": "ASQQKILSL [cdr2 107-113 ASQQKILSL]",
    "ED50 / µM": 8
  },
  {
    "Binder": "KLVPDSLYV [cdr2 273-281 KLVPDSLYV]",
    "ED50 / µM": 3
  },
  {
    "Binder": "KVYEQLDVT [cdr2 82-90 KVYEQLDVT]",
    "ED50 / µM": 8
  },
  {
    "Binder": "NIDHLQSQV [cdr2 125-133 NIDHLQSQV]",
    "ED50 / µM": 6
  },
  {
    "Binder": "LLEEMFLTV [cdr2 290-298 LLEEMFLTV]",
    "ED50 / µM": 0.6
  },
  {
    "Binder": "LSLERQKRV [cdr2 209-217 LSLERQKRV]",
    "ED50 / µM": 8.4
  },
  {
    "Binder": "LVPDSLYVP [cdr2 274-282 LVPDSLYVP]",
    "ED50 / µM": 10
  },
  {
    "Binder": "GVNAQSEPV [cdr2 391-399 GVNAQSEPV]",
    "ED50 / µM": 10
  },
  {
    "Binder": "HLKKTVTML [cdr2 197-205 HLKKTVTML]",
    "ED50 / µM": 10
  },
  {
    "Binder": "YLTKQVELL [cdr2 65-73 YLTKQVELL]",
    "ED50 / µM": 2
  },
  {
    "Binder": "LSLTETIEC [cdr2 113-121 LSLTETIEC]",
    "ED50 / µM": 0.95
  },
  {
    "Binder": "LGATGAYRA [cdr2 237-245 LGATGAYRA]",
    "ED50 / µM": 10
  },
  {
    "Binder": "SLSHKAVQT [cdr2 373-381 SLSHKAVQT]",
    "ED50 / µM": 4
  },
  {
    "Binder": "SQVEELKSS [cdr2 131-139 SQVEELKSS]",
    "ED50 / µM": 11
  }
]
